measurement_target: EZH2 (rPRC2) (Homo sapiens)
Sequence (Q15910 whole entry): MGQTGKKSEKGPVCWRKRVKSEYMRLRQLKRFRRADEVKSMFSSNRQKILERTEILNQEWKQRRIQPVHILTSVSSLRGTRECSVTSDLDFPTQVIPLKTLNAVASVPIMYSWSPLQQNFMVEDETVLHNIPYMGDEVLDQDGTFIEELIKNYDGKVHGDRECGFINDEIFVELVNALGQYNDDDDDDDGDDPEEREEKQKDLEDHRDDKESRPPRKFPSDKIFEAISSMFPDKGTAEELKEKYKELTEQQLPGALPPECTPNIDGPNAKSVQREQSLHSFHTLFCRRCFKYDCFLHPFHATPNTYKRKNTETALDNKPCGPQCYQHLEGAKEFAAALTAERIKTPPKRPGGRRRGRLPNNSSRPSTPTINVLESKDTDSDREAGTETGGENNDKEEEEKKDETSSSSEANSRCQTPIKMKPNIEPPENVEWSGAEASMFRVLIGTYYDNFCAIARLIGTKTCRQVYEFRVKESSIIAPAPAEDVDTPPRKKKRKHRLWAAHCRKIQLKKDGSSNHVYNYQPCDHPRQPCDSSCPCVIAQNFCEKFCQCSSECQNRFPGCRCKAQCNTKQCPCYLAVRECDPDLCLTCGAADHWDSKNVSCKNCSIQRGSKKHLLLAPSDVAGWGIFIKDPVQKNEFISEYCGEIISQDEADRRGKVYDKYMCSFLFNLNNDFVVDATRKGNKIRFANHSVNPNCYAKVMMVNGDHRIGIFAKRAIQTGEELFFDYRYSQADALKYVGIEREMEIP
Sequence (O75530 whole entry partner): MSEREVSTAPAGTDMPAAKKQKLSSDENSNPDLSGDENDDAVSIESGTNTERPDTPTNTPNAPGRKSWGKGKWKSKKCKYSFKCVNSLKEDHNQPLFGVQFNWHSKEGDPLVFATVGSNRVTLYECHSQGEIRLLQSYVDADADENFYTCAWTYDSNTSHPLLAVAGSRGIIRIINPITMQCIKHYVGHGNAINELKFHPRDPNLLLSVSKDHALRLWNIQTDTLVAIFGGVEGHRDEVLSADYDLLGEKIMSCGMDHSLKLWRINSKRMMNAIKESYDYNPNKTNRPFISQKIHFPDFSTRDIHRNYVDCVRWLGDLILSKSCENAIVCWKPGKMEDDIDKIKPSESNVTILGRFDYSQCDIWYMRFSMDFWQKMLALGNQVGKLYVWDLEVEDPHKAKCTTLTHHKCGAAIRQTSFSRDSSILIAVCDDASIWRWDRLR
Sequence (Q15022 whole entry partner): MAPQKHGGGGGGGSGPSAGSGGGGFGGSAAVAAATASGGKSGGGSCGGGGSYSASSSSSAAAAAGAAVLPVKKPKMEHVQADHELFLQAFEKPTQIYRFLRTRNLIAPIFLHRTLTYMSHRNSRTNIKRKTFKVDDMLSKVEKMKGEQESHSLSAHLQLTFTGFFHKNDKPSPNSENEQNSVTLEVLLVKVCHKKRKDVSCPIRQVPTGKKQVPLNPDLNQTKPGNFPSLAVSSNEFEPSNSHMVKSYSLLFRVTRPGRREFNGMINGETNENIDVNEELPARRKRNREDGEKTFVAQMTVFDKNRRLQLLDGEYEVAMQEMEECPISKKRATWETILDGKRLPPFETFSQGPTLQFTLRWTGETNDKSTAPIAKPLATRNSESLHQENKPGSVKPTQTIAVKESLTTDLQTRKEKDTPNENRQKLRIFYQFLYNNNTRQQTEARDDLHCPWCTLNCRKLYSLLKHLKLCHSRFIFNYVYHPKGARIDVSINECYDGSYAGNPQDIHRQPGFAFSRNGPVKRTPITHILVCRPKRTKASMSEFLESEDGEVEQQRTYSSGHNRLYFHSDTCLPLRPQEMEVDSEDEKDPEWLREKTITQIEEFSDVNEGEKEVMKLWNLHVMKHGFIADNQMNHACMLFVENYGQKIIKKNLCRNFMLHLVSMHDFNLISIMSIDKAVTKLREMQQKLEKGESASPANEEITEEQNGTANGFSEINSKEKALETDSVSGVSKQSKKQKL
method_notes: EZH2 assay: rPRC2, biotinylated oligonucleosomes, 3H SAM methyl transfer (FlashPlate scintillation)
Type: biochemical
measurement_setup: EZH2 IC50, wild-type EZH2 (rPRC2), biotinylated oligonucleosome substrate
pIC50: −log10 of the molar value.
reported_property: pIC50

Below: 2 compounds and their reported pIC50.
>>> observed_value("CCC(C)n1c(C)c(C(=O)NCc2c(C)cc(C)[nH]c2=O)c2cccnc21 (racemic) [Compound 185]")
"6.00 to 7.00"
>>> observed_value("COc1cc(C)[nH]c(=O)c1CNC(=O)c1c(C)n(C(C)C2CCN(CC(C)(C)O)CC2)c2ccccc12 (single isomer, unassigned)")
"> 7.00"

Now turn to the next compound.
If you can, please state the reported pIC50 value of COc1ccc2c(C(=O)NCc3c(OC)cc(C)[nH]c3=O)c(C)n(C(C)C3CCOCC3)c2c1 (single isomer, unassigned) . > 7.00

====

measurement_target: Y641N EZH2 (Homo sapiens, UniProt Q15910, Y641N)
Sequence (Q15910 whole entry Y641N): as the sequence (Q15910 whole entry) above, with Y641N counted along it
Sequence (O75530 whole entry partner): as the sequence (O75530 whole entry partner) above
Sequence (Q15022 whole entry partner): as the sequence (Q15022 whole entry partner) above
method_notes: Y641N EZH2 assay: as EZH2 assay, with reconstituted H3K27Me2 oligonucleosomes as substrate
Format: biochemical
measurement_setup: Y641N EZH2 IC50, Y641N mutant EZH2, H3K27Me2 oligonucleosome substrate
pIC50: −log10 of the molar value.
Please go through the items and note down their pIC50.

Below: 3 molecules and their reported pIC50.
>>> observed_value("COC[C@H](C)n1c(C)c(C(=O)NCc2c(OC)cc(C)[nH]c2=O)c2cncnc21 [Compound 287]")
"5.00 to 6.00"
>>> observed_value("COCCOC(C)C(C)n1c(C)c(C(=O)NCc2c(OC)cc(C)[nH]c2=O)c2cccnc21 (racemic) [Compound 297, 2,2,2-trifluoroacetate]")
"6.00 to 7.00"
>>> observed_value("COc1cc(C)[nH]c(=O)c1CNC(=O)c1c(C)n(C(C)C2COCCO2)c2ccccc12 (stereo not shown) [Compound 348]")
"> 7.00"

If you can, please state the reported pIC50 value of Cc1cc(C)c(CNC(=O)c2c(C)n(C(C)C3CC3)c3ncccc23)c(=O)[nH]1 (racemic) [Compound 211] . 6.00 to 7.00

====

Please go through the items and note down their pEC50.
Test system: H3K27me3 mark in HeLa cells
method_notes: H3K27me3 Alpha Hela Assay (AlphaLISA)
Assay type: cell-based
measurement_setup: Homo sapiens, 72 hrs, read-out: H3K27me3_Alpha_HeLa_ (EC50)
pEC50: −log10 of the molar value.

Below: 5 compounds and their reported pEC50.
>>> observed_value("Cc1cc(C)c(CNC(=O)c2c(C)n(C(C)C3CCN(CC(C)(C)O)CC3)c3ccccc23)c(=O)[nH]1 (single isomer, unassigned)")
"> 6.40"
>>> observed_value("CCS(=O)(=O)C1(C(C)n2c(C)c(C(=O)NCc3c(OC)cc(C)[nH]c3=O)c3ccccc32)CCNCC1 (single isomer, unassigned)")
"> 6.40"
>>> observed_value("COc1cc(C)[nH]c(=O)c1CNC(=O)c1c(C)n(C(C)C2CCOCC2)c2ccccc12 (single isomer, unassigned)")
"> 6.40"
>>> observed_value("COc1cc(C)[nH]c(=O)c1CNC(=O)c1c(C)n(C(C)C2CCN(C(=O)C(C)C)CC2)c2ccccc12 (single isomer, unassigned)")
"> 6.40"
>>> observed_value("Cc1cc(C)c(CNC(=O)c2c(C)n(C(C)c3cccc(C#N)c3)c3ccccc23)c(=O)[nH]1 (stereo not drawn)")
"5.70 to 6.40"

If you can, please state the reported pEC50 value of CCOC(=O)CN1CCC(C(C)n2c(C)c(C(=O)NCc3c(OC)cc(C)[nH]c3=O)c3ccccc32)CC1 (single isomer, unassigned) . > 6.40

meta.source: patent US9371331B2
